study-system: T1, KRAS G12V peptide on HLA-A*11:01 (human)
T1 peptide: VVVGAVGVGK
test-method-notes: multimer staining

# binder, binding result
records = [
    ("nwTCR-1708 (TCR, V domains shown) Valpha: QKEVEQNSGPLSVPEGAIASLNCTYSDRGSQSFFWYRQYSGKSPELIMFIYSNGDKEDGRFTAQLNKASQYVSLLIRDSQPSDSATYLCAVNMPGNMLTFGGGTRLMVKP Vbeta: DARVTQTPRDKVTEMGQEVTMRCQPILGHNTVFWYRQTMMQGLELLAYFRNRAPLDDSGMPKDRFSAEMPDATLATLKIQPSEPRDSAVYFCASGPEGLDNEQFFGPGTRLTVL", "recognises"),
    ("nwTCR-0126 (TCR, V domains shown) Valpha: AQKVTQAQTEISVVEKEDVTLDCVYETRDTTYYLFWYKQPPSGELVFLIRRNSFDEQNEISGRYSWNFQKSTSSFNFTITASQVVDSAVYFCALSDPRYSGGGADGLTFGKGTHLIIQP Vbeta: DSGVTQTPKHLITATGQRVTLRCSPRSGDLSVYWYQQSLDQGLQFLIQYYNGEERAKGNILERFSAQQFPDLHSELNLSSLELGDSALYFCASSPRGGDSILDTQYFGPGTRLTVL", "recognises"),
    ("nwTCR-2563 (TCR, V domains shown) Valpha: SQQGEEDPQALSIQEGENATMNCSYKTSINNLQWYRQNSGRGLVHLILIRSNEREKHSGRLRVTLDTSKKSSSLLITASRAADTASYFCATDRTGGYNKLIFGAGTRLAVHP Vbeta: ETGVTQSPTHLIKTRGQQVTLRCSSQSGHNTVSWYQQALGQGPQFIFQYYREEENGRGNFPPRFSGLQFPNYSSELNVNALELDDSALYLCASSLQTGDEQYFGPGTRLTVT", "recognises"),
]
